// values below are reported inhibition at 10 µM
tested-system: CRAC channel (Homo sapiens, UniProt Q96D31)
Construct: host or cells: HEK293
Sequence (Q96D31 whole entry): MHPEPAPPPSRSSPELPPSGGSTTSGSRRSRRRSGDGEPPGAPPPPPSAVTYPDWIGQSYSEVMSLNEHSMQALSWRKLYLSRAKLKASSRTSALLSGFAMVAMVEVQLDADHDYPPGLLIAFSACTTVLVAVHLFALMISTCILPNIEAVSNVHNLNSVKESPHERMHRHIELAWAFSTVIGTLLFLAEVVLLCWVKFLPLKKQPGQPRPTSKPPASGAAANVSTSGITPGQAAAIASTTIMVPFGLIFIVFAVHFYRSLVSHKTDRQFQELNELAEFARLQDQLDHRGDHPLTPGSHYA
method-summary: HEK Calcium Influx Assay (FLIPR)
Assay type: cell-based
assay-setup: 10 μM; endogenous SOC in HEK293 cells, thapsigargin store depletion, Ca2+ signal 9.5-10 min post-administration; read-out: % inhib.[@ 10 μM] FLIPR

Examples from the recorded data:
> print(dat)
                            chemical.smiles            parameter  recorded.result
1  CCc1c(C(=O)Nc2c(F)cccc2F)nn(C)c1-c1cc(OC)ccc1OC  inhibition at 10 µM        50 to 70%
2  COc1ccc(OC)c(-c2cc(C(=O)Nc3cnccc3C)nn2C)c1  inhibition at 10 µM            > 70%
3  COc1ccc(OC)c(-c2c(CO)c(C(=O)Nc3c(F)cccc3F)nn2C)c1  inhibition at 10 µM            < 50%
4  COc1ccc(OC)c(-c2cc(C(=O)Nc3ccc(S(C)(=O)=O)cc3F)nn2C)c1  inhibition at 10 µM        50 to 70%
5  COc1ccc(OC)c(-c2cc(C(=O)Nc3c(C)cccc3F)nn2C)c1  inhibition at 10 µM            > 70%

What measured inhibition at 10 µM is associated with COc1ccc(OC)c(-c2c(Cl)c(C(=O)Nc3ccncc3F)nn2C)c1 on CRAC channel (Homo sapiens, UniProt Q96D31)? > 70%

Give the reported inhibition at 10 µM for Cn1nc(C(=O)Nc2c(F)cccc2F)cc1-c1ccccc1C(F)(F)F (system: CRAC channel (Homo sapiens, UniProt Q96D31)). > 70%

Query for CRAC channel (Homo sapiens, UniProt Q96D31): what inhibition at 10 µM does the record show for COc1ccc(OC)c(-c2cc(C(=O)Nc3ccccc3C)nn2C)c1 ? > 70%

# get_value(readout= inhibition at 10 µM, system= CRAC channel (Homo sapiens, UniProt Q96D31)) for Cn1nc(C(=O)Nc2c(F)cccc2F)cc1-c1cc(C(F)(F)F)ccc1Cl > 70%

* * *

tested-system: CRAC channel (Homo sapiens)
Construct: host or cells: HEK293
method-summary: HEK Calcium Influx Assay (FLIPR)
Format: cell-based
assay-setup: 10 μM; endogenous SOC in HEK293 cells, thapsigargin store depletion, Ca2+ signal 9.5-10 min post-administration; read-out: % inhib.[@ 10 μM] FLIPR
Below, each entry is listed alongside its reported inhibition at 10 µM.

Example cases with answers are listed next.
> print(dat)
                            chemical.smiles  recorded.result
1  CCOc1ccc(OC)cc1-c1cc(C(=O)Nc2c(F)cccc2F)nn1C            > 70%
2  CNc1c(C(=O)Nc2c(F)cncc2F)nn(C)c1-c1cc(OC)ccc1OC            < 50%
3  COc1ccc(OC)c(-c2cc(C(=O)Nc3ccncc3C#N)nn2C)c1        50 to 70%

Enter reported inhibition at 10 µM observed with CRAC channel (Homo sapiens) for Cn1nc(C(=O)Nc2c(F)cccc2F)cc1-c1cc(F)ccc1F 50 to 70%

Param readout = inhibition at 10 µM; param system = CRAC channel (Homo sapiens); param query = COc1ccc(OC(F)(F)F)c(-c2cc(C(=O)Nc3c(F)cccc3F)nn2C)c1 ; response: value > 70%

* * *

tested-system: CRAC channel (Homo sapiens)
Construct: host or cells: HEK293
method-summary: HEK Calcium Influx Assay (FLIPR)
Assay type: cell-based
assay-setup: 10 μM; endogenous SOC in HEK293 cells, thapsigargin store depletion, Ca2+ signal 9.5-10 min post-administration; read-out: % inhib.[@ 10 μM] FLIPR
Experimental: The effect of compounds of the invention on intracellular [Ca^2+] was tested in the HEK293 cell line (ECACC). HEK293 cells were cultured in DMEM/F12/Glutamax (Gibco) containing 10% FCS (Gibco), and maintained at 37° C., 5% CO2. […] Intracellular changes in [Ca^2+] were subsequently monitored with the FLIPR device (Molecular Devices). […] Increases in intracellular [Ca^2+] due to pre-activated SOC channels were monitored for 15 min until intracellular Ca^2+ levels had declined into a steady-state. […]
parameter: inhibition at 10 µM

> print(dat)
                            chemical.smiles            parameter  recorded.result
1  Cn1nc(C(=O)Nc2c(F)cncc2F)cc1-c1c(F)cccc1C(F)(F)F  inhibition at 10 µM            > 70%
2  Cn1nc(C(=O)Nc2c(F)cccc2F)cc1-c1c(F)cccc1F  inhibition at 10 µM        50 to 70%
3  Cn1nc(C(=O)Nc2c(F)cccc2F)cc1-c1cc(C(F)(F)F)ccc1F  inhibition at 10 µM            > 70%

Can you look up the measured inhibition at 10 µM of COc1ccc(OC)c(-c2cc(C(=O)Nc3cnc(C)cc3C)nn2C)c1 for me? 50 to 70%

What value of measured inhibition at 10 µM is listed for Cc1ccncc1-c1cc(C(=O)Nc2ccccc2C(F)(F)F)nn1C ? > 70%

* * *

tested-system: CRAC channel (Homo sapiens, UniProt Q96D31)
Construct: host or cells: HEK293
method-summary: HEK Calcium Influx Assay (FLIPR)
Assay type: cell-based
assay-setup: 10 μM; endogenous SOC in HEK293 cells, thapsigargin store depletion, Ca2+ signal 9.5-10 min post-administration; read-out: % inhib.[@ 10 μM] FLIPR
parameter: inhibition at 10 µM

> print(dat)
                            chemical.smiles  recorded.result
1  Cc1cccc(Cl)c1NC(=O)c1cc(-c2c(F)cccc2F)n(C)n1        50 to 70%
2  Cc1cncc(F)c1NC(=O)c1cc(-c2c(F)cccc2F)n(C)n1        50 to 70%
3  Cn1nc(C(=O)Nc2ccncc2F)cc1-c1c(F)cccc1C(F)(F)F            > 70%

What is its inhibition at 10 µM for CRAC channel (Homo sapiens, UniProt Q96D31)? Entry: Cc1cccc(F)c1NC(=O)c1cc(-c2c(F)cccc2C(F)(F)F)n(C)n1 > 70%

Record Cc1ccncc1-c1cc(C(=O)Nc2c(C)cncc2F)nn1C : what is its inhibition at 10 µM with CRAC channel (Homo sapiens, UniProt Q96D31)? > 70%

Look up inhibition at 10 µM with CRAC channel (Homo sapiens, UniProt Q96D31) for this compound: COc1ccc(Cl)cc1-c1cc(C(=O)Nc2ccncc2F)nn1C 50 to 70%

# get_value(readout= inhibition at 10 µM, system= CRAC channel (Homo sapiens, UniProt Q96D31)) for Cn1nc(C(=O)Nc2c(F)cccc2F)cc1-c1ccc(OC(F)(F)F)cc1Cl > 70%

Item: COc1ccc(OC)c(-c2c(N)c(C(=O)Nc3c(F)cccc3F)nn2C)c1 Test system: CRAC channel (Homo sapiens, UniProt Q96D31) Read-out: inhibition at 10 µM Value: ? 50 to 70%

For the record Cn1nc(C(=O)Nc2ccccc2OC(F)(F)F)cc1-c1c(F)cccc1C(F)(F)F , what value of inhibition at 10 µM is listed for CRAC channel (Homo sapiens, UniProt Q96D31)? 50 to 70%

Form entry - test system: CRAC channel (Homo sapiens, UniProt Q96D31); read-out: inhibition at 10 µM; compound: Cc1ccc(C(F)(F)F)cc1-c1cc(C(=O)Nc2c(F)cccc2F)nn1C > 70%

* * *

tested-system: CRAC channel (Homo sapiens, UniProt Q96D31)
Construct: host or cells: HEK293
method-summary: HEK Calcium Influx Assay (FLIPR)
Type: cell-based
assay-setup: 10 μM; endogenous SOC in HEK293 cells, thapsigargin store depletion, Ca2+ signal 9.5-10 min post-administration; read-out: % inhib.[@ 10 μM] FLIPR
Method: The effect of compounds of the invention on intracellular [Ca^2+] was tested in the HEK293 cell line (ECACC). HEK293 cells were cultured in DMEM/F12/Glutamax (Gibco) containing 10% FCS (Gibco), and maintained at 37° C., 5% CO2. […] Intracellular changes in [Ca^2+] were subsequently monitored with the FLIPR device (Molecular Devices). […] Increases in intracellular [Ca^2+] due to pre-activated SOC channels were monitored for 15 min until intracellular Ca^2+ levels had declined into a steady-state. […]
Overview of reported inhibition at 10 µM across a group of compounds:

Consider the worked cases shown below.
> print(dat)
                            chemical.smiles            parameter  recorded.result
1  COc1cc(S(C)(=O)=O)ccc1-c1cc(C(=O)Nc2c(F)cccc2F)nn1C  inhibition at 10 µM            < 50%
2  COc1ccc(-c2cc(C(=O)Nc3ccncc3F)nn2C)c(C)c1  inhibition at 10 µM            > 70%
3  COc1ccc(OC)c(-c2cc(C(=O)Nc3c(F)cncc3F)nn2C)c1  inhibition at 10 µM            > 70%
4  COc1ccc(OC)c(-c2c(Cl)c(C(=O)Nc3c(F)cccc3F)nn2C)c1  inhibition at 10 µM            > 70%

Attention now shifts to the item below.
Suppose we examine the compound COc1ccc(OC)c(-c2cc(C(=O)Nc3ccccc3F)nn2C)c1 ; what inhibition at 10 µM value has been reported? > 70%

All figures here come from patent US9078899B2.
